tested.target: Receptor tyrosine-protein kinase erbB-2 (Homo sapiens, UniProt P04626)
Sequence (P04626 whole entry, the tested form may be a part): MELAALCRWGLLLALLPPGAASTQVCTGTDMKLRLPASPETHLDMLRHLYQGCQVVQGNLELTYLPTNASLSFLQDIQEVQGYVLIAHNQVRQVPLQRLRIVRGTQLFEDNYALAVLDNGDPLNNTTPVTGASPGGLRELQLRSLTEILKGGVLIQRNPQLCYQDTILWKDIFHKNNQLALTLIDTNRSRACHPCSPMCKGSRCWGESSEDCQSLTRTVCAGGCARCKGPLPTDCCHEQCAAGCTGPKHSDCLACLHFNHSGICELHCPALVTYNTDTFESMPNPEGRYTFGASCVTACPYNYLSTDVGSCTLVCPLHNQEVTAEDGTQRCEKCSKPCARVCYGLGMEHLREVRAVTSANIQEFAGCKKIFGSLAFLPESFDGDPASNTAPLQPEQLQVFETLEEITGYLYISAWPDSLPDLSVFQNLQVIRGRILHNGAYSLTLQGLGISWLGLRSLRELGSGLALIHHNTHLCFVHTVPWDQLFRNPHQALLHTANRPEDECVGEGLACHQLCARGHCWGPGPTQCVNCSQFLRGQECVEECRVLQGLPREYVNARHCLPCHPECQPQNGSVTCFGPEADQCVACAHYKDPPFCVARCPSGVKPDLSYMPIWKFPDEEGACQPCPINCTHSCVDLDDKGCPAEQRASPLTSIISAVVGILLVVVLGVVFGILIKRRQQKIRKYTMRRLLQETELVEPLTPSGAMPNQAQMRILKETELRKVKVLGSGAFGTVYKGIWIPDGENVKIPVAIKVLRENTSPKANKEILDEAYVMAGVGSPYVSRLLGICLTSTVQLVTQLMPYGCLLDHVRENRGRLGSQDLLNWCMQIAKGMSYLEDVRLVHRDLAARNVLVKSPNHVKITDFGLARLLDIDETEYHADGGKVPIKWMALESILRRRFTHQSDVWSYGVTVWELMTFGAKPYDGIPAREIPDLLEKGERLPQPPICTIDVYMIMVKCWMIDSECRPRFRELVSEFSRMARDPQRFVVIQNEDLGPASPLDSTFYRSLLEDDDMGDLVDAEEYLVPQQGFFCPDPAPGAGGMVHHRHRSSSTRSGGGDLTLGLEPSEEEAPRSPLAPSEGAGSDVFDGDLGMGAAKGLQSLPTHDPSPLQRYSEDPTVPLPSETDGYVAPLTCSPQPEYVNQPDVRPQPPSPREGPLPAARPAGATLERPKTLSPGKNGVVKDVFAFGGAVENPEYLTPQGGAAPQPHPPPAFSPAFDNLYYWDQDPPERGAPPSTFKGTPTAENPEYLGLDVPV
assay.summary: Inhibition of C-terminal His6-tagged HER2 (703 to 1029 residues) (unknown origin) expressed in Sf9 insect cells using TK as substrate preincubated for 30 mins followed by substrate addition and measured after 60 mins in presence of XL665-labeled streptavidin by HTRF assay
readout: IC50 (nM)

Observe how each entry below is paired with its result.
{"columns": ["compound", "readout", "readout.number"],
 "data": [
  ["C=CC(=O)Nc1cccc(-c2c(-c3ccc(N4CCN(C)CC4)cc3)[nH]c3ncnc(Nc4ccc(CN5C(=O)c6ccccc6C5=O)cc4)c23)c1", "IC50", 55],
  ["C=CC(=O)Nc1cc(-c2c[nH]c3ncnc(Nc4ccc(OCc5ccccn5)c(Cl)c4)c23)ccc1OC(C)COC (configuration not stated)", "IC50", 14]
]}

P = C=CC(=O)Nc1cccc(-c2c[nH]c3ncnc(Nc4ccc(OCN5C(=O)c6ccccc6C5=O)cc4)c23)c1
Q = C=CC(=O)Nc1cccc(-c2c(-c3ccc(N4CCN(C)CC4)cc3)[nH]c3ncnc(Nc4ccc(OC(=O)C(c5ccccc5)N5Cc6ccccc6C5=O)cc4)c23)c1 (configuration not stated)
## Input Which of these two has the smaller recorded IC50: P or Q ? Give the label under which the chosen entry appears.
## Output P
(P: 4.5 nM, Q: 13 nM)

###

assay.summary: Apparent permeability across apical side to basolateral side in human Caco-2 cells at 5 uM after 2 hrs by transwell assay
Format: ADME, cell-based
condition.set: read-out: permeability
readout: Papp A→B at 2 h, 5 µM (×10⁻⁶ cm/s)

{"columns": ["compound", "Papp A→B at 2 h, 5 µM / ×10⁻⁶ cm/s"],
 "data": [
  ["C=CC(=O)Nc1cccc(-c2c[nH]c3ncnc(Nc4ccc(CN5C(=O)c6ccccc6C5=O)cc4)c23)c1", 0.5],
  ["C=CC(=O)Nc1cccc(-c2c[nH]c3ncnc(Nc4ccc(OCc5ccccn5)c(Cl)c4)c23)c1", 1.9]
]}

1 = CCOc1cc2ncc(C#N)c(Nc3ccc(OCc4ccccn4)c(Cl)c3)c2cc1NC(=O)/C=C/CN(C)C [NERATINIB]
2 = C=CC(=O)N1CCC(Oc2cc3c(Nc4ccc(Cl)c(Cl)c4F)ncnc3cc2OC)CC1 [POZIOTINIB]
## Input Compare 1 and 2 by numeric Papp A→B at 2 h, 5 µM and name the larger one. Refer to your chosen entry by its label in the reply.
## Output 2
(2: 21.1 ×10⁻⁶ cm/s, 1: 0.09 ×10⁻⁶ cm/s)

###

assay.summary: cells
Type: cell-based
condition.set: Homo sapiens, NCI-H1781, 96 h
Description: Inhibition of HER2-G776delinsVC mutant (unknown origin) expressed in human H1781 cells assessed as reduction in HER2 induced cell viability after 96 hrs by CellTiter-Glo assay
readout: IC50 (nM)

{"columns": ["smiles", "result.units", "IC50"],
 "data": [
  ["C=CC(=O)Nc1cccc(-c2c(-c3ccc(N4CCN(C)CC4)cc3)[nH]c3ncnc(Nc4ccc(OCN5C(=O)c6ccccc6C5=O)cc4)c23)c1", "nM", 264]
]}

1 = C=CC(=O)N1CCC(Oc2cc3c(Nc4ccc(Cl)c(Cl)c4F)ncnc3cc2OC)CC1
2 = C=CC(=O)Nc1cc(-c2c[nH]c3ncnc(Nc4ccc(OCc5ccccn5)c(Cl)c4)c23)ccc1OCCO
3 = C=CC(=O)Nc1cccc(-c2c(-c3ccc(N4CCN(C)CC4)cc3)[nH]c3ncnc(OC(C)C)c23)c1
## Input With regard to IC50, arrange the entries in ascending order, please. Answer format: list of labels, ordered as asked.
## Output 1, 2, 3
(1: 105 nM, 2: 201 nM, 3: 1180 nM)

###

tested.target: Receptor tyrosine-protein kinase erbB-2 (Homo sapiens)
assay.summary: Inhibition of C-terminal His6-tagged HER2 (703 to 1029 residues) (unknown origin) expressed in Sf9 insect cells using TK as substrate preincubated for 30 mins followed by substrate addition and measured after 60 mins in presence of XL665-labeled streptavidin by HTRF assay
pIC50: −log10 of the molar value.
readout: pIC50

A = C=CC(=O)Nc1cccc(-c2c[nH]c3ncnc(Nc4ccc5[nH]c(Cc6ccccc6)nc5c4)c23)c1
B = C=CC(=O)Nc1cc(-c2c[nH]c3ncnc(Nc4ccc(CN5C(=O)c6ccccc6C5=O)cc4)c23)ccc1OCCN(C)C
C = C=CC(=O)Nc1cccc(-c2c(-c3ccc(N4CCN(C)CC4)cc3)[nH]c3ncnc(Nc4ccc(OCN5C(=O)c6ccccc6C5=O)cc4)c23)c1
## Input Give the order of the entries above, sorted from least to greatest pIC50. Your answer should be the labels, listed in the requested order.
## Output B, C, A
(B: 7.64, C: 7.92, A: 8.46)

###

assay.summary: cells
Format: cell-based
condition.set: Homo sapiens, NCI-H1781, 96 h
pIC50: −log10 of the molar value.
readout: pIC50

Examples with their reported pIC50 follow.
{"columns": ["molecule", "pIC50"],
 "data": [
  ["CC(C)(O)CC(=O)NCCn1ccc2ncnc(Nc3ccc(Oc4cccc(C(F)(F)F)c4)c(Cl)c3)c21", 5.40],
  ["CCOc1cc2ncc(C#N)c(Nc3ccc(OCc4ccccn4)c(Cl)c3)c2cc1NC(=O)/C=C/CN(C)C", 6.83],
  ["C=CC(=O)Nc1cccc(-c2c(-c3ccc(N4CCN(C)CC4)cc3)[nH]c3ncn(C(C)C)c(=O)c23)c1", 5.69]
]}

I = C=CC(=O)Nc1cccc(-c2c[nH]c3ncnc(Nc4ccc(OC(c5ccccc5)c5ccccc5)cc4)c23)c1
II = C=CC(=O)Nc1cccc(-c2c(-c3ccc(N4CCN(C)CC4)cc3)[nH]c3ncnc(OCC)c23)c1
## Input # argmax over pIC50 for candidates I and II Please identify the chosen entry by its label.
## Output II
(II: 6.38, I: 5.19)

###

assay.summary: Ratio of apparent permeability across basolateral to apical over apical to basolateral side in human Caco2 cells at 5 uM after 2 hrs by transwell assay
Assay type: ADME, cell-based
condition.set: Caco-2
// reported efflux ratio at 2 h, 5 µM for each item listed
Answer as a number with no unit attached.

Here are 4 compounds together with their reported answers.
{"columns": ["smiles", "readout", "readout.number"],
 "data": [
  ["C=CC(=O)Nc1cccc(-c2c[nH]c3ncnc(Nc4ccc(CN5C(=O)c6ccccc6C5=O)cc4)c23)c1", "efflux ratio at 2 h, 5 µM", 0.2],
  ["C=CC(=O)Nc1cc(-c2c[nH]c3ncnc(Nc4ccc(OCc5ccccn5)c(Cl)c4)c23)ccc1OCCN(C)C", "efflux ratio at 2 h, 5 µM", 11.4],
  ["C=CC(=O)N1CCC(Oc2cc3c(Nc4ccc(Cl)c(Cl)c4F)ncnc3cc2OC)CC1", "efflux ratio at 2 h, 5 µM", 0.36],
  ["C=CC(=O)Nc1cc(-c2c[nH]c3ncnc(Nc4ccc5c(cnn5Cc5ccccc5)c4)c23)ccc1OCCO", "efflux ratio at 2 h, 5 µM", 4.5]
]}

Attention now shifts to the item below.
## Input Quick check: efflux ratio at 2 h, 5 µM of C=CC(=O)Nc1cccc(-c2c[nH]c3ncnc(Nc4ccc(OCc5ccccn5)c(Cl)c4)c23)c1 ?
## Output 0.3

###

assay.summary: Intrinsic clearance in mouse liver microsomes at 3 uM measured up to 60 mins by LC-MS analysis
Assay type: ADME, Microsome
condition.set: read-out: CLH
readout: microsomal CLint at 3 µM (µL/min/mg)

{"columns": ["smiles", "readout.number"],
 "data": [
  ["C=CC(=O)Nc1cccc(-c2c[nH]c3ncnc(Nc4ccc(OCc5ccccn5)c(Cl)c4)c23)c1", 125]
]}

1 = CN(C)C/C=C/C(=O)Nc1cc2c(Nc3ccc(F)c(Cl)c3)ncnc2cc1O[C@H]1CCOC1
2 = C=CC(=O)N1CCC(Oc2cc3c(Nc4ccc(Cl)c(Cl)c4F)ncnc3cc2OC)CC1
3 = CCOc1cc2ncc(C#N)c(Nc3ccc(OCc4ccccn4)c(Cl)c3)c2cc1NC(=O)/C=C/CN(C)C
4 = CS(=O)(=O)CCNCc1ccc(-c2ccc3ncnc(Nc4ccc(OCc5cccc(F)c5)c(Cl)c4)c3c2)o1
## Input Endpoint returns the given compounds ordered by ascending microsomal CLint at 3 µM. Sort the labels as requested; that list is your answer.
## Output 1, 2, 4, 3

###

assay.summary: Kinetic solubility of compound in HEPES buffer a pH 7.4 at 500 uM after 90 mins
Format: physicochemical
condition.set: read-out: Kinetic_solubility
Listing of entries alongside the reported solubility kinetic at 1.5 h, 500 µM.
Note: unit µM is implicit; provide only the numeric part.

Below, 2 compounds whose answers are already recorded.
{"columns": ["smiles", "result.units", "solubility kinetic at 1.5 h, 500 µM"],
 "data": [
  ["C=CC(=O)Nc1cc(-c2c[nH]c3ncnc(Nc4ccc5c(cnn5Cc5ccccc5)c4)c23)ccc1OCCO", "µM", 16.8],
  ["CCOc1cc2ncc(C#N)c(Nc3ccc(OCc4ccccn4)c(Cl)c3)c2cc1NC(=O)/C=C/CN(C)C", "µM", 1.2]
]}

# ---- query compound ----
## Input I have this compound here, C=CC(=O)Nc1cccc(-c2c[nH]c3ncnc(Nc4ccc(CN5C(=O)c6ccccc6C5=O)cc4)c23)c1 , and I need its recorded solubility kinetic at 1.5 h, 500 µM.
## Output 8.3

Numbers sourced from ChEMBL document CHEMBL4665812.
